method-summary: RP, Waters CORTECS T3, 100 × 2.1 mm, 2.7 µm, 0.25 mL/min, estimated dead time 0.88 min; A: water + 0.1% formic acid, pH 3; B: methanol + 0.1% formic acid, pH 3; gradient (min/%B) 0/5 5/5 25/95 25.1/100 35/100 35.1/5 45/5
condition-context: stereoisomer not certain
Would you mind telling me the reported log10 of LC retention time of each entry?
The figures below represent log10 of LC retention time, where LC retention time is stated in min.

Kindly note the recorded log10 of LC retention time for CC(=O)N[C@H](Cc1c[nH]c2ccccc12)C(=O)O , which is 1.12

Kindly note the recorded log10 of LC retention time for CSCCC(NC=O)C(=O)O [FORMYL-L-METHIONYL PEPTIDE] , which is 0.79

Kindly note the recorded log10 of LC retention time for Nc1ncnc2c1ncn2C1CC(O)C(COP(=O)(O)O)O1 (stereo not given) , which is 0.03

Kindly note the recorded log10 of LC retention time for Nc1nc2ncc(CNc3ccc(C(=O)NC(CCC(=O)O)C(=O)O)cc3)nc2c(=O)[nH]1 (stereo not given) , which is 1.05

Kindly note the recorded log10 of LC retention time for CC(C)(CO)C(O)C(=O)NCCC(=O)O (stereo not given) , which is 0.80

Kindly note the recorded log10 of LC retention time for O=C(O)c1ccc2ccccc2c1[O-] [1-HYDROXY-2-NAPHTHOATE] , which is 1.30

Kindly note the recorded log10 of LC retention time for CC(=O)NC(CC(N)=O)C(=O)O (stereo not given) , which is 0.03

Kindly note the recorded log10 of LC retention time for O=c1[nH]cnc2c1ncn2C1OC(CO)C(O)C1O (stereo not given) , which is 0.46

Kindly note the recorded log10 of LC retention time for Nc1nc2c(ncn2C2OC3COP(=O)(O)OC3C2O)c(=O)[nH]1 (stereo not given) [GUANOSINE 3',5'-CYCLIC MONOPHOSPHATE] , which is 0.51

Kindly note the recorded log10 of LC retention time for CCC(NC(=O)CCC(N)C(=O)O)C(=O)NCC(=O)O (stereo not given) , which is 0.03

Kindly note the recorded log10 of LC retention time for CC(=O)NCCCC(=O)[O-] [4-ACETAMIDOBUTANOATE] , which is 0.39

Kindly note the recorded log10 of LC retention time for CC(C)=CCNc1ncnc2nc[nH]c12 , which is 1.10

Kindly note the recorded log10 of LC retention time for O=C(O)c1cc(=O)c2cccc(O)c2[nH]1 , which is 0.99

Kindly note the recorded log10 of LC retention time for Cc1ncc(CO)c(C(=O)O)c1O [4-PYRIDOXATE] , which is 0.45

Kindly note the recorded log10 of LC retention time for N[C@@H](Cc1cc(I)c(Oc2ccc(O)cc2)c(I)c1)C(=O)O , which is 1.21

Kindly note the recorded log10 of LC retention time for O=c1[nH]c(=O)c2[nH]c(=O)[nH]c2[nH]1 [URATE] , which is 0.03

Kindly note the recorded log10 of LC retention time for CC(=O)N[C@@H](Cc1ccccc1)C(=O)O , which is 1.10

Kindly note the recorded log10 of LC retention time for Nc1nc2nccnc2c(=O)[nH]1 , which is 0.32

Kindly note the recorded log10 of LC retention time for O=C(O)CCCCCCCC(=O)O , which is 1.19

Kindly note the recorded log10 of LC retention time for O=C(O)C(O)C(O)C(O)C(O)COP(=O)(O)O (stereo not given) , which is 0.03
